- methodDescription: soluble on expression in E. coli; label from the status in PepcDB or PDB records
measurementType: soluble on expression in E. coli

{"sequenceChain": "MSLPNCLQCQSEYVYEDGLLLICPMCAFEWTPGEEATEEEGLVVLDSNGVRLSDGDTITVVKDLKVKGAPKDLKQGTRVKNIRLVEGDHNIDCKIDGFGAMKLKSEFVKKI", "measurementType": "soluble on expression in E. coli", "observedValue": "not soluble"}
{"sequenceChain": "MAHHHHHHMYTWFHTSSHVFFVMEYCSNGDLFTYLNEHGPFAEKKVAEMLFEIIWAIRTCHDKRIAHLDLKPENVLVNHEEKCKLADFGLSAHIGSKHKKKGISHYRGTHDYWSPEQCARHQKKKQNFGEFDQKTDIWTLGILAFELKFGRPPFGSTNEERETVIMNRIQDYHWSQLFCEKMKQDLIDKLSPEFKDFLNLCLDKNPKKRPTAETLIQHPFIFLHNKSRPCIKSYATQPRGKQGPKLSHKGFNEQDGSFLTPIWFHNKG", "measurementType": "soluble on expression in E. coli", "observedValue": "not soluble"}
{"sequenceChain": "MGSDKIHHHHHHAQDKKKEFKMPTGYAGITHEMSEFYEPVPPVVTPGTDLKGGGFTAPSDAIVLFDGKDLSAWESVKGGAAEWDVHDGVFTVNKKKGDIQTKQKFNDFQMHIEWQVPTNITGESQSRGNSGIFLQGMYEVQVLDCYNNPTYVNGQTGSIYKQSIPLANAMRKPGEWNVYDIIYTAPTFKEDGSYRTHPTVTVIQNGVVLQNHTTILGTTEWIGFPQVKKHGAGPIILQSHGDPSEPISFRNIWIREL", "measurementType": "soluble on expression in E. coli", "observedValue": "not soluble"}
